- System: LOX IMVI melanoma
- assay.explanation: NCI tumour cell line growth inhibition, 48 h
TGI reference

{"molecule": "C[N+](C)(CCCCCC[N+](C)(C)CCCN1C(=O)c2cccc3cccc(c23)C1=O)CCCN1C(=O)c2cccc3cccc(c23)C1=O", "TGI": "> 100 µM"}
{"molecule": "O=C1NC(=NCCc2ccc(F)cc2)S/C1=C\\c1ccc2ncccc2c1", "TGI": "> 25 µM"}
{"molecule": "Nc1nnc2c(-c3ccccc3)[nH]nc2n1", "TGI": "> 100 µM"}
{"molecule": "COc1cc(OC2OC(CO)C(O)C(O)C2O)c2c(O)c3c(=O)cc(C)oc3cc2c1 (stereo not given)", "TGI": "> 100 µM"}
{"molecule": "CC(C)(O)/C1=C/C=C/CCCCCCCCCC1", "TGI": "> 100 µM"}

Entry `CCCNC(=O)Nc1c([N+](=O)[O-])cc(C(F)(F)F)cc1[N+](=O)[O-]` : reported TGI = ?
> 100 µM

Quick one: TGI of `C#Cc1cccc(Nc2ncnc3cc(NC(=O)CCl)ccc23)c1` ?
2.97 µM

Quick check: TGI of `CCOC(=O)C(C)(NC(=O)c1ccc(NCc2ccc3nc(NC(=O)c4ccccc4)nc(NC(=O)c4ccccc4)c3c2)cc1)C(=O)OCC` ?
34.1 µM

Query: TGI; subject: COC(=O)C(=O)C(C(=O)OC)C(=O)C(=O)Nc1c(C)cccc1C (stereo not given)
> 100 µM

Which TGI is listed for `N#C/C(=C\c1ccncc1)c1csc2ccccc12` ?
47.9 µM

What does the record list as TGI for `COC(=O)c1ccc2c(c1)CC1(C2)Cc2cc3c(cc2C1)CCC3` ?
> 100 µM

Requested read-out: TGI. Entry: `COc1nc(N=P(c2ccccc2)(c2ccccc2)c2ccccc2)cc(=O)n1C`
> 100 µM

Request the reported TGI associated with N#CC(NNC(=O)Cc1ccccc1)c1cccc(O)c1 (stereo not given)
> 100 µM

Sample CCC(NC(C)c1ccccc1)C(=O)c1ccc(OCc2ccccc2)c(OCc2ccccc2)c1 (stereo not given) — what was its TGI?
> 100 µM

What value of measured TGI is listed for `O=S(O)CCCCCSSc1ccccc1` ?
38.4 µM
